assayedTarget: PxOctβ3 (Plutella xylostella, UniProt Z9TZ33AL48)
Construct: pcDNA3.1-PxOctβ3 stably expressed in HEK-293 cells; ORF also cloned in pEGFP-N1
assayMethodText: intracellular cAMP assay, HEK-293 cells stably expressing the receptor
settings: agonist; 1 nM-100 μM; b43 prints approximately 65 nM
reportedEndpoint: pEC50
In textbook form, pEC50 equals minus log to base ten of the concentration in mol/L.

// query What does the record list as pEC50 for NC[C@H](O)c1ccc(O)cc1 ?
// result 7.19
